assay_notes: reduced viability of SK-BR-3 breast cancer cells – cell-based, 24 h, human, pilot screen (AID 572);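 note: compound exposure lasted between 18 and 24 h rather than exactly 24 h; 100% = carrier-treated control wells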
condition_details: SK-BR-3 viability, CellTiter-Glo luminescence, at 10 µM, active compounds read low
Could you mark each record TRUE if its viability falls strictly under 90%, and FALSE if it equals or exceeds it?

Completed entries (count: 6):
1) Cc1nc2ccc(C(=O)c3ccccc3)cc2[nH]1 : FALSE
2) CCOC(=O)c1oc2c(CN3CCN(C)CC3)c(O)ccc2c(=O)c1-c1ccccc1OC : FALSE
3) O=C(NCCN1C(=O)C2C3C=CC(C3)C2C1=O)N1CCCCC1 (stereo not given) : FALSE
4) COc1ccccc1N1CCN(c2cc(=O)n(Cc3ccc(F)cc3)c(=O)[nH]2)CC1 : FALSE
5) Cn1cc(Cl)c(C(=O)NC2CCCC2)n1 : TRUE
6) O=C(CCn1c(=O)oc2ccccc21)NCCN1CCOCC1 : FALSE

**Query** viability strictly < 90% for this molecule? C(=N\c1c(-c2ccccc2)nc2n1CCS2)/c1ccccc1
**Result** FALSE

**Query** viability strictly < 90% for this molecule? CCOC(=O)N1CCC(NC(=O)c2cnn3ccccc23)CC1
**Result** FALSE

**Query** viability strictly < 90% for this molecule? CCOC(=O)c1sc2nc(NC(=O)C(C)(C)C)sc2c1C
**Result** FALSE

**Query** viability strictly < 90% for this molecule? CC1CCc2nn(CC(=O)NCCCN3CCOCC3)cc2C1 (stereo not given)
**Result** FALSE

**Query** viability strictly < 90% for this molecule? Cc1n[nH]c(C)c1N1C(=O)c2cccc3cc(Br)cc(c23)C1=O
**Result** TRUE

**Query** viability strictly < 90% for this molecule? CC1(C)CC(=O)c2cnc(NC(=O)CCc3ccccc3)nc2C1
**Result** FALSE

**Query** viability strictly < 90% for this molecule? COc1ccccc1NC1=C(C)C(=O)CC1
**Result** FALSE

**Query** viability strictly < 90% for this molecule? COc1cccc(C2CC(c3ccc(F)cc3)Nc3nc(N)nn32)c1 (stereo not given)
**Result** FALSE

**Query** viability strictly < 90% for this molecule? CCN(CC)c1ccc(NC(=O)CN2C(=O)CC(C)(C)S(=O)(=O)c3ccccc32)c(C)c1
**Result** FALSE

**Query** viability strictly < 90% for this molecule? CC(=O)NC(C)C(=O)OCC(=O)Nc1ccc(Br)cc1 (stereo not given)
**Result** FALSE

**Query** viability strictly < 90% for this molecule? CCCCSc1nc2c(cnn2-c2ccc(F)cc2)c(=O)[nH]1
**Result** FALSE

**Query** viability strictly < 90% for this molecule? CCOc1ccc(Cn2nnc(C(=O)Nc3ccc(OC)cc3OC)c2N)cc1
**Result** FALSE

**Query** viability strictly < 90% for this molecule? CC1=C(C(=O)Nc2ccccc2)C(c2ccccn2)n2nc(CCCO)nc2N1 (stereo not given)
**Result** FALSE

**Query** viability strictly < 90% for this molecule? CC1(C)CC(=O)C=C(Nc2ccc(OCC(F)(F)C(F)F)cc2)C1
**Result** FALSE

**Query** viability strictly < 90% for this molecule? O=c1oc2c3c4c(cc2cc1-c1nc2ccccc2[nH]1)CCCN4CCC3
**Result** TRUE

**Query** viability strictly < 90% for this molecule? Cc1c(NC(=O)c2noc3c2CCc2ccccc2-3)c(=O)n(-c2ccccc2)n1C
**Result** FALSE

**Query** viability strictly < 90% for this molecule? Cc1ccccc1NC(=O)C1CCCN(S(=O)(=O)c2cnc[nH]2)C1 (stereo not given)
**Result** TRUE

**Query** viability strictly < 90% for this molecule? CC1CCC(NC(=O)C2(C)CCC(=O)N2Cc2cccnc2)CC1 (stereo not given)
**Result** FALSE

**Query** viability strictly < 90% for this molecule? O=C(Nc1ccc(CN2CCOCC2)cc1)c1cc2ccccn2n1
**Result** FALSE

---

assay_notes: S. cerevisiae growth inhibition in permissive medium (OD615), pilot counter-assay for S. cerevisiae lifespan shortening project, permissive growth control (AID 705)
condition_details: OD615, 24 h, at 10 µM
Activity calls are given as the source filed them.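 How the source made its calls: active means growth inhibition above 25% in both replicates, a cutoff set 3 SD above the mean; inconclusive means above 25% in only one replicate; inactive means the rest.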
Write down one outcome, taken from 1 = active, -1 = inactive

Completed entries (count: 3):
1) CC(=O)c1ccc(OCC(O)CN2CCN(CCO)CC2)cc1 (configuration not stated) : -1
2) CCOc1ccc2nc(Nc3nc4c(c(=O)[nH]3)CCC4)nc(C)c2c1 : -1
3) O=P(/C(=N/O)Sc1ccccc1)(N1CCOCC1)N1CCOCC1 : -1

**Query** // param item: CCOC(=O)c1c(CN2CCCCC2)n(C)c2cc(Br)c(O)c(CN(C)C)c12 ; yields the recorded call
**Result** -1

**Query** // param item: Oc1cccc(C=NCc2ccccc2)c1O ; yields the recorded call
**Result** 1

**Query** // param item: CNC(=O)c1ccsc1NC(=O)c1ccccc1 ; yields the recorded call
**Result** -1

**Query** // param item: Cc1cccc(-n2ncc3c(NCc4cccnc4)ncnc32)c1 ; yields the recorded call
**Result** -1

---

Measured inhibition, listed per entry.
assay_notes: RAM pathway blockade in budding yeast – dse1pr::URA3 reporter, 5-FOA selection, pilot screen (AID 869);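 note: 0% = DMSO wells with no growth and 100% = 10 µM 1-NA-PP1 with full growth; RAM network block rescues cells from 5-FOA so hits raise OD615 growth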
condition_details: S. cerevisiae dse1pr::URA3 5-FOA growth, OD615, 2 d; at 10 µM; active compounds read high; strain carries analog-sensitive mutant Cbk1 kinase
Calls of active or inactive are those of the source.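 The calls were made as follows: active = inhibition over a set limit, the all-compound mean plus 3 SD, in both replicate runs; inconclusive = over that limit in just one replicate run; inactive = at or under that limit in both runs.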

1) CCCn1c(N2CCN(Cc3cccc(C)c3)CC2)nc2c1c(=O)[nH]c(=O)n2C : 1.34% (inactive)
2) Cc1csc(C(C#N)C(=O)c2cc3ccccc3o2)n1 (stereo unspecified) : 2.67% (inactive)
3) CCCCN(C(=O)c1ccc(Cl)cc1)C1CC2CCC(C1)N2C (stereo unspecified) : 1.62% (inactive)
4) Cc1ccc2nc(NC(=O)Cn3cc4c(n3)CCCCC4)sc2c1 : 2.76% (inactive)

Documented inhibition of O=C(Nc1nc2c(s1)CCCC2)C1COc2ccccc2O1 (stereo unspecified) : 0.75% (inactive)

Documented inhibition of COc1ccc(-c2nc3c(c(SCC(=O)N4CCOCC4)n2)COC(C)(C)C3)cc1 : 0.94% (inactive)

Documented inhibition of COc1ccccc1OCC(=O)N(Cc1nc(-c2ccc(Cl)cc2)no1)C(C)C : 1.4% (inactive)

---

Measured viability, listed per entry.
assay_notes: viability of HCT116 without oncogenic beta-catenin – human colon tumor cells, pilot screen (AID 823);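 note: 0% = wells killed by 20 µM Hyamine and 100% = untreated DMSO cell wells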
condition_details: HCT116 beta-catenin knockout viability, CellTiter-Glo, 60 h; at 10 µM; active compounds read low
Results filed as inconclusive are left out.
Quick reminder: number only, in %, skip the unit.

1. O=C(O)CCCC(=O)Nc1c(F)c(F)c(F)c(F)c1F : 90.4
2. Cc1cc(=S)n(-c2ccccc2)n1C : 102
3. O=C(c1sc2ccccc2c1Cl)N(Cc1cccs1)C1CCS(=O)(=O)C1 (stereo unspecified) : 92.2
4. Cc1cc(C)n(-c2ccc(N3CCOCC3)nn2)n1 : 103
5. CC(CC(=O)NC1CCSC1=O)c1ccccc1 (stereo unspecified) : 96.5

Documented viability of CCCCN(C)Cc1c(O)ccc2c(-c3ccccc3)cc(=O)oc12 : 91

Documented viability of CC1=C(C(=O)Nc2cccnc2)C(c2ccc(C(C)C)cc2)n2ncnc2N1 (stereo unspecified) : 96.6

---

target_entity: Receptor tyrosine-protein kinase erbB-2 (Homo sapiens)
assay_notes: Her2 expression decrease, cell viability multiplex – SKBR3 breast tumor cells, AlphaScreen, ATP viability, primary screen (AID 461);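 note: lower value means less Her2 protein in the cells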
condition_details: 18-24 h, at 10 µM, active compounds read low
quantity_kind: Her2 level (%)
Quick reminder: number only, in %, skip the unit.

Would you please look over these solved cases?
1) Cn1nnc2cc(C(=O)N3CCCCCC3)ccc21 : 99.5
2) COc1ccccc1CC(=O)Nc1ccc(OC)c(OC)c1 : 98.5
3) CC(C)c1ncc(C(O)c2cccc3ccccc23)n1C (stereo unspecified) : 129
4) COc1cc(NC(=O)CC(C)C)ccc1NC(=O)c1ccco1 : 93
5) O=C(Nc1ccncc1)c1cccc(F)c1 : 130

Kindly consider the entry below.
Documented Her2 level of CC1CCCN(C(=O)c2cc3c(-c4ccc(Cl)cc4)nn(C)c3s2)C1 (stereo unspecified) : 87

---

Measured growth inhibition, listed per entry.
assay_notes: S. cerevisiae growth inhibition in permissive medium (OD615), pilot counter-assay for S. cerevisiae lifespan shortening project, permissive growth control (AID 705)
condition_details: OD615, 24 h, at 10 µM, active compounds read high
Quick reminder: number only, in %, skip the unit.

Would you please look over these solved cases?
1. CC(C)(C)NC(=O)CSc1nnc(-c2ccccn2)n1-c1ccccc1 : -14
2. CCCN(CCC)C(=O)c1c(C)[nH]c(C(=O)OCC)c1C : 4.14
3. Cc1nc2ccc(S(=O)(=O)NC(C(=O)Nc3nccs3)C(C)C)cc2s1 (stereo not given) : -5.25

Documented growth inhibition of COc1ccc(N(CC(=O)O)S(=O)(=O)c2ccc(OC)c(OC)c2)cc1 : -15.1

Documented growth inhibition of CC1CN(c2ccc(Oc3ccccc3)cc2)c2nc3c(c(=O)n(CC(N)=O)c(=O)n3C)n2C1 (stereo not given) : -3.86
